Biological target: tubulin (Sus scrofa)
Experiment: Binding affinity to porcine tubulin by spectrophotometric analysis
recorded_endpoint: Kd (nM)

CC(C)(C)c1[nH]cnc1/C=c1\[nH]c(=O)/c(=C/c2cccc(C(=O)c3ccc(F)cc3)c2)[nH]c1=O = 72

---

Test: Inhibition of bovine brain microtubule polymerization by spectrophotometric analysis
Set-up: species or system Bos taurus
recorded_endpoint: IC50 (nM)

COc1ccc(/C=C\c2cc(OC)c(OC)c(OC)c2)cc1O = 550
CC(C)(C)c1[nH]cnc1/C=c1\[nH]c(=O)/c(=C/c2cccc(C(=O)c3ccc(F)cc3)c2)[nH]c1=O = 900

---

Test system: HT-29
Test: Cytotoxicity against human HT-29 cells after 48 hrs by resazurin assay
Type: functional, cell-based
Conditions: HT-29, 48 h
Reported IC50 by item:
recorded_endpoint: IC50 (µM)

COc1ccc(/C=C\c2cc(OC)c(OC)c(OC)c2)cc1O [COMBRETASTATIN A4] = 12
CC(C)(C)c1[nH]cnc1/C=c1\[nH]c(=O)/c(=C/c2ccc3c(c2)C(=O)c2ccccc2-3)[nH]c1=O = 2.8
